biological target: Protein cereblon/NAD-dependent protein deacylase sirtuin-6 (Homo sapiens, UniProt Q8N6T7+Q96SW2); test: PROTAC activity at CRBN/SIRT6 in human SK-HEP1 cells assessed as induction of SIRT6 degradation upto 10 uM incubated for 36 hrs by Western blot analysis relative to control; type: cell-based
Sequence (Q8N6T7 2-355 limits assumed): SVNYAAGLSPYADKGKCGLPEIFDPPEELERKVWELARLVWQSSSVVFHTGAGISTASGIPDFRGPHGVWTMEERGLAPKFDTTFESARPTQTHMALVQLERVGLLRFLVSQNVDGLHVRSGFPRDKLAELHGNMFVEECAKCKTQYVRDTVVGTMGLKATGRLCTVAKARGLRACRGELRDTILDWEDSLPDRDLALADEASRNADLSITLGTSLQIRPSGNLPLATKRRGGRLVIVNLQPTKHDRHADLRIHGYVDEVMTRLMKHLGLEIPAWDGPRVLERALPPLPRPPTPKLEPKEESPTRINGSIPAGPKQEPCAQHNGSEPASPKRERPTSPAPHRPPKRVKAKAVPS
Sequence (Q96SW2 whole entry partner): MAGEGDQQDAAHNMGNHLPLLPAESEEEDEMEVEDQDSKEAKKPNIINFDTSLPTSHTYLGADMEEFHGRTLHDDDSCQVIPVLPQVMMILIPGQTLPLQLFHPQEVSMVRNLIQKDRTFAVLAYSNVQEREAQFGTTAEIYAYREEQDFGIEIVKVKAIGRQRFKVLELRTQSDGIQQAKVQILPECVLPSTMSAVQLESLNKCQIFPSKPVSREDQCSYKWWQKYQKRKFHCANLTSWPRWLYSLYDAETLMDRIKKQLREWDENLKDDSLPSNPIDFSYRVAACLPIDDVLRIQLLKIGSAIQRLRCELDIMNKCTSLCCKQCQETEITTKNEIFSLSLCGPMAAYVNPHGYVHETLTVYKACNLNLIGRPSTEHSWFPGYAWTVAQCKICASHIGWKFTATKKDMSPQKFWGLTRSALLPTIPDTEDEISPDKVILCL
Below, each of the compounds is paired with its reported Emax value.

Nc1cc(N2CCN(CC3CCN(c4ccc5c(c4)C(=O)N(C4CCC(=O)NC4=O)C5=O)CC3)CC2)ccc1[N+](=O)[O-] (centres undefined) : 94.8%
Nc1cc(N2CCN(CC3CCN(c4ccc5c(c4)C(=O)N(C4CCC(=O)NC4=O)C5=O)C3)CC2)ccc1[N+](=O)[O-] (centres undefined) : 96.2%
Nc1cc(N2CCN(CCCC3CCN(c4cc5c(cc4F)C(=O)N(C4CCC(=O)NC4=O)C5=O)CC3)CC2)ccc1[N+](=O)[O-] (centres undefined) : 97.7%

Q. Using the record for Nc1cc(N2CCN(CC3CCN(c4cc5c(cc4F)C(=O)N(C4CCC(=O)NC4=O)C5=O)CC3)CC2)ccc1[N+](=O)[O-] (centres undefined) , report its Emax.
A. > 98%

---

target: Protein cereblon/NAD-dependent protein deacylase sirtuin-6 (Homo sapiens, UniProt Q8N6T7+Q96SW2); test: PROTAC activity at CRBN/SIRT6 in human SK-HEP1 cells assessed as induction of SIRT6 degradation at 2 uM incubated for 36 hrs by In-Cell ELISA relative to control; format: cell-based
Answer f if Activity is under 90%, and t if it is 90% or more.

Example cases with answers are listed next.
Nc1cc(N2CCN(CCNCCC3CCN(c4ccc5c(c4)C(=O)N(C4CCC(=O)NC4=O)C5=O)CC3)CC2)ccc1[N+](=O)[O-] (centres undefined) : f
Nc1cc(N2CCN(CC3CCN(c4cc5c(cc4F)C(=O)N(C4CCC(=O)NC4=O)C5=O)C3)CC2)ccc1[N+](=O)[O-] (centres undefined) : t

Q. Can Nc1cc(N2CCN(CCNCC3CCN(c4cc5c(cc4F)C(=O)N(C4CCC(=O)NC4=O)C5=O)C3)CC2)ccc1[N+](=O)[O-] (centres undefined) be said to have Activity at or above 90%?
A. f

Q. Can Nc1cc(N2CCN(CC3CCCN(c4ccc5c(c4)C(=O)N(C4CCC(=O)NC4=O)C5=O)C3)CC2)ccc1[N+](=O)[O-] (centres undefined) be said to have Activity at or above 90%?
A. f

Q. Can Nc1cc(N2CCN(CCNCCCC3CCN(c4ccc5c(c4)C(=O)N(C4CCC(=O)NC4=O)C5=O)CC3)CC2)ccc1[N+](=O)[O-] (centres undefined) be said to have Activity at or above 90%?
A. f

Q. Can Nc1cc(N2CCN(CC3CN(c4cc5c(cc4F)C(=O)N(C4CCC(=O)NC4=O)C5=O)C3)CC2)ccc1[N+](=O)[O-] (centres undefined) be said to have Activity at or above 90%?
A. f

Q. Can Nc1cc(N2CCN(CCCC3CCN(c4ccc5c(c4)C(=O)N(C4CCC(=O)NC4=O)C5=O)CC3)CC2)ccc1[N+](=O)[O-] (centres undefined) be said to have Activity at or above 90%?
A. t

Q. Can Nc1cc(N2CCN(CC3CN(c4ccc5c(c4)C(=O)N(C4CCC(=O)NC4=O)C5=O)C3)CC2)ccc1[N+](=O)[O-] (centres undefined) be said to have Activity at or above 90%?
A. f

Q. Can Nc1cc(N2CCN(CCNCCC3CCN(c4cc5c(cc4F)C(=O)N(C4CCC(=O)NC4=O)C5=O)CC3)CC2)ccc1[N+](=O)[O-] (centres undefined) be said to have Activity at or above 90%?
A. f

---

biological target: Protein cereblon/NAD-dependent protein deacylase sirtuin-6 (Homo sapiens, UniProt Q8N6T7+Q96SW2); assay: PROTAC activity at CRBN/SIRT6 in human Huh-7 cells assessed as induction of SIRT6 degradation upto 10 uM incubated for 36 hrs by Western blot analysis relative to control; format: cell-based
quantity: Emax (%)
I only need the number, in %, no unit after it.

Previously resolved entries follow.
Nc1cc(N2CCN(CCCC3CCN(c4cc5c(cc4F)C(=O)N(C4CCC(=O)NC4=O)C5=O)CC3)CC2)ccc1[N+](=O)[O-] (centres undefined) : 81.5
Nc1cc(N2CCN(CC3CCN(c4ccc5c(c4)C(=O)N(C4CCC(=O)NC4=O)C5=O)C3)CC2)ccc1[N+](=O)[O-] (centres undefined) : 78.5
Nc1cc(N2CCN(CC3CCN(c4ccc5c(c4)C(=O)N(C4CCC(=O)NC4=O)C5=O)CC3)CC2)ccc1[N+](=O)[O-] (centres undefined) : 90.6

Q. Using the record for Nc1cc(N2CCN(CC3CCN(c4cc5c(cc4F)C(=O)N(C4CCC(=O)NC4=O)C5=O)CC3)CC2)ccc1[N+](=O)[O-] (centres undefined) , report its Emax.
A. 91.8

---

target: Protein cereblon/NAD-dependent protein deacylase sirtuin-6 (Homo sapiens, UniProt Q8N6T7+Q96SW2); assay: PROTAC activity at CRBN/SIRT6 in human SK-HEP1 cells assessed as induction of SIRT6 degradation at 2 uM incubated for 36 hrs by In-Cell ELISA relative to control; format: cell-based
quantity: Activity (%)
I only need the number, in %, no unit after it.

Previously resolved entries follow.
Nc1cc(N2CCN(CC3CCN(c4cc5c(cc4F)C(=O)N(C4CCC(=O)NC4=O)C5=O)CC3)CC2)ccc1[N+](=O)[O-] (stereo not given) : 92.5
Nc1cc(N2CCN(CCNCC3CCCN(c4cc5c(cc4F)C(=O)N(C4CCC(=O)NC4=O)C5=O)C3)CC2)ccc1[N+](=O)[O-] (stereo not given) : 98.5

Q. Using the record for Nc1cc(N2CCN(CCNCC3CN(c4cc5c(cc4F)C(=O)N(C4CCC(=O)NC4=O)C5=O)C3)CC2)ccc1[N+](=O)[O-] (stereo not given) , report its Activity.
A. 83.5

Q. Using the record for Nc1cc(N2CCN(CC3CCN(c4ccc5c(c4)C(=O)N(C4CCC(=O)NC4=O)C5=O)C3)CC2)ccc1[N+](=O)[O-] (stereo not given) , report its Activity.
A. 98.2

Q. Using the record for Nc1cc(N2CCN(CCNCC3CCCN(c4ccc5c(c4)C(=O)N(C4CCC(=O)NC4=O)C5=O)C3)CC2)ccc1[N+](=O)[O-] (stereo not given) , report its Activity.
A. 51.6
